assay: Nuclear factor erythroid 2-related factor 2/antioxidant responsive element (Nrf2/ARE) small molecule agonists: luciferase reporter gene qHTS assay in human keratinocytes (AID 1919969); details: KeratinoSens HaCaT ARE-luciferase, luminescence, 24 h; series mostly up to 92.4 µM; further: nearly all actives have a fitted effect of over 35% in size
Results filed as inconclusive are left out. Active and inactive are the calls of the source. The call rests on the fitted dose curve.
Permitted responses: active, inactive

These solved cases illustrate the format of a correct answer.
1. CSC(=O)c1c(C(F)F)nc(C(F)(F)F)c(C(=O)SC)c1CC(C)C : active
2. CCC[CH2][Sn]([CH2]CCC)([CH2]CCC)[O][Sn]([CH2]CCC)([CH2]CCC)[CH2]CCC : active

Lookup: # outcome recorded in this test, key = "CC1(C)CN=C(NN=C(/C=C/c2ccc(C(F)(F)F)cc2)/C=C/c2ccc(C(F)(F)F)cc2)NC1"
Found: inactive

Lookup: # outcome recorded in this test, key = "COc1cc(CCN)cc(OC)c1OC"
Found: inactive

Lookup: # outcome recorded in this test, key = CC(Cc1ccccc1)N(C)Cc1ccco1 (stereo unspecified)
Found: inactive
